Listed next: entries and their corresponding cell viability.
# System: Vero E6
# assayProcedure: cell viability relative to DMSO; higher = less toxic
# particulars: 72 h; 10000 nM

compound	unitText	cell viability
Cc1cc(Nc2ncnc3ccc(-c4ccc(CNCCS(C)(=O)=O)o4)cc23)ccc1Oc1ccn2ncnc2c1	%	94.2
C[C@@H]1CCN(C(=O)CC#N)C[C@@H]1N(C)c1ncnc2[nH]ccc12	%	96.1
CC[C@@H](C)CNCC(=O)N1CCc2sccc2[C@@H]1COc1cccc(C)c1	%	92.8
O=c1onc2cnc3ccccc3n12	%	105
CCCCC(=O)N(Cc1ccc(-c2ccccc2-c2nnn[nH]2)cc1)[C@H](C(=O)O)C(C)C	%	99.9
COc1ccc(CCCO[C@@H](Cn2ccnc2)c2ccc(OC)cc2)cc1	%	50.1
O=C(Nc1nc(-c2cc(Cl)cs2)c(N2CCN(C3CCCCC3)CC2)s1)c1cnc(N2CCC(C(=O)O)CC2)c(Cl)c1	%	92
CC(=O)[C@H]1CC[C@H]2[C@@H]3CCC4=CC(=O)CC[C@]4(C)[C@H]3CC[C@]12C	%	110
CC1(N)CCN(c2cnc(-c3cccc(Cl)c3Cl)c(N)n2)CC1	%	78.9
Cc1[nH]nc(C(F)(F)F)c1Cc1sc2c(c1C(=O)N1C[C@](C)(O)CO1)c(=O)n(C)c(=O)n2C(C)C	%	97.4
Cc1ccnc(NS(=O)(=O)c2ccc(N)cc2)n1	%	97.8
NC1CCN(c2nc3c(cc2F)c(=O)c(C(=O)O)cn3-c2ccc(F)cc2F)C1 (stereo not drawn)	%	99.7
COc1ccccc1N1CCN(CCN2C(=O)c3ccccc3C(C)(C)C2=O)CC1	%	103
CCNC(=O)C[C@@H]1N=C(c2ccc(Cl)cc2)c2cc(OC)ccc2-n2c(C)nnc21	%	15.9
CC(=O)NCCCCCC(=O)O	%	102
Clc1ccc(N/N=C(\c2ccccc2)c2ccccn2)nc1	%	6.4
C[C@@H](O)[C@H]1C(=O)N2C(C(=O)O)=C([C@H]3CCCO3)S[C@H]12	%	97.1
N#Cc1ccc(N(Cc2ccc(Br)cc2)n2cnnc2)cc1	%	96.6
